Collected enrichment ratio values appear next to each entry.
B1: PhoQ; a variant is named by its letters at X, in order, P23837 (parent)
chain: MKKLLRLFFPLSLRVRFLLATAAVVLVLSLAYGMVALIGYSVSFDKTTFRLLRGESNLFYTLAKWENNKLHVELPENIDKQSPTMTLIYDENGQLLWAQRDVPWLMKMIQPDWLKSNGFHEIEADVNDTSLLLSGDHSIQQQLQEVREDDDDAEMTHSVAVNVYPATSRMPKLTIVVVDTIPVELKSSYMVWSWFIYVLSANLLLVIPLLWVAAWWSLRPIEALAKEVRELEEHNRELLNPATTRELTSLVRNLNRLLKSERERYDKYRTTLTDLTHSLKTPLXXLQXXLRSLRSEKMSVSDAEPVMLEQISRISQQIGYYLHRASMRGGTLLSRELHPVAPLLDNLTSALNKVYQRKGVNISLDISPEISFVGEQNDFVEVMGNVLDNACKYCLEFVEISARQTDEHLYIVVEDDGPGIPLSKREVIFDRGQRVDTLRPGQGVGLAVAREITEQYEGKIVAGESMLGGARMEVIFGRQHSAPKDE

Variants of: B1
Assay: enrichment ratio after two sorts for PhoP signalling (ratio (wild type AVST 3.29)); higher = more functional
Conditions: with PhoP (E. coli)
Over roughly 140,000 sequences, “enrichment ratio after two sorts for PhoP signalling” has its median near 0; the highest 2% begin near 11. The entries come from a sample that favours the highest values as a whole.

[
  {
    "Sequence Change": "SITF",
    "enrichment ratio": 11.8
  },
  {
    "Sequence Change": "SMGL",
    "enrichment ratio": 5.54
  },
  {
    "Sequence Change": "ASFT",
    "enrichment ratio": 1.36
  },
  {
    "Sequence Change": "TILA",
    "enrichment ratio": 4.43
  },
  {
    "Sequence Change": "TGIM",
    "enrichment ratio": "≤ 0.25"
  },
  {
    "Sequence Change": "SEAT",
    "enrichment ratio": 13.6
  },
  {
    "Sequence Change": "TELI",
    "enrichment ratio": 19.5
  },
  {
    "Sequence Change": "IEDQ",
    "enrichment ratio": "≤ 0.25"
  },
  {
    "Sequence Change": "KSLY",
    "enrichment ratio": "≤ 0.25"
  },
  {
    "Sequence Change": "SLTF",
    "enrichment ratio": 12.2
  },
  {
    "Sequence Change": "MESC",
    "enrichment ratio": 10.2
  },
  {
    "Sequence Change": "SGTW",
    "enrichment ratio": "≤ 0.25"
  },
  {
    "Sequence Change": "TIWI",
    "enrichment ratio": "≤ 0.25"
  },
  {
    "Sequence Change": "NATF",
    "enrichment ratio": "≤ 0.25"
  },
  {
    "Sequence Change": "ESVY",
    "enrichment ratio": "≤ 0.25"
  },
  {
    "Sequence Change": "SENT",
    "enrichment ratio": 2.04
  },
  {
    "Sequence Change": "SMPL",
    "enrichment ratio": "≤ 0.25"
  },
  {
    "Sequence Change": "KQKI",
    "enrichment ratio": "≤ 0.25"
  },
  {
    "Sequence Change": "RRTP",
    "enrichment ratio": "≤ 0.25"
  },
  {
    "Sequence Change": "SMMD",
    "enrichment ratio": "≤ 0.25"
  },
  {
    "Sequence Change": "LFFW",
    "enrichment ratio": "≤ 0.25"
  },
  {
    "Sequence Change": "KYIM",
    "enrichment ratio": "≤ 0.25"
  },
  {
    "Sequence Change": "AIQI",
    "enrichment ratio": 0.475
  },
  {
    "Sequence Change": "SQTQ",
    "enrichment ratio": 11.3
  },
  {
    "Sequence Change": "NTWT",
    "enrichment ratio": "≤ 0.25"
  },
  {
    "Sequence Change": "SCIV",
    "enrichment ratio": 1.12
  },
  {
    "Sequence Change": "KSMT",
    "enrichment ratio": "≤ 0.25"
  },
  {
    "Sequence Change": "AGAW",
    "enrichment ratio": "≤ 0.25"
  },
  {
    "Sequence Change": "MELI",
    "enrichment ratio": 6.46
  },
  {
    "Sequence Change": "RIQI",
    "enrichment ratio": "≤ 0.25"
  },
  {
    "Sequence Change": "MTRF",
    "enrichment ratio": "≤ 0.25"
  },
  {
    "Sequence Change": "SGRM",
    "enrichment ratio": "≤ 0.25"
  },
  {
    "Sequence Change": "NPDM",
    "enrichment ratio": "≤ 0.25"
  },
  {
    "Sequence Change": "LWKV",
    "enrichment ratio": "≤ 0.25"
  },
  {
    "Sequence Change": "ITIM",
    "enrichment ratio": "≤ 0.25"
  },
  {
    "Sequence Change": "QIPP",
    "enrichment ratio": "≤ 0.25"
  },
  {
    "Sequence Change": "YICL",
    "enrichment ratio": 3.21
  },
  {
    "Sequence Change": "SMMY",
    "enrichment ratio": 2.28
  },
  {
    "Sequence Change": "TIRA",
    "enrichment ratio": "≤ 0.25"
  },
  {
    "Sequence Change": "FFKH",
    "enrichment ratio": "≤ 0.25"
  },
  {
    "Sequence Change": "TQTG",
    "enrichment ratio": 5.83
  },
  {
    "Sequence Change": "WLTF",
    "enrichment ratio": "≤ 0.25"
  },
  {
    "Sequence Change": "SADG",
    "enrichment ratio": "≤ 0.25"
  },
  {
    "Sequence Change": "QELI",
    "enrichment ratio": "≤ 0.25"
  },
  {
    "Sequence Change": "RVSG",
    "enrichment ratio": "≤ 0.25"
  },
  {
    "Sequence Change": "MDSP",
    "enrichment ratio": 1.12
  },
  {
    "Sequence Change": "SMSH",
    "enrichment ratio": 9.89
  },
  {
    "Sequence Change": "FSFI",
    "enrichment ratio": 0.694
  },
  {
    "Sequence Change": "DAFY",
    "enrichment ratio": "≤ 0.25"
  },
  {
    "Sequence Change": "MEFA",
    "enrichment ratio": "≤ 0.25"
  },
  {
    "Sequence Change": "TITS",
    "enrichment ratio": 15.9
  },
  {
    "Sequence Change": "KYTQ",
    "enrichment ratio": "≤ 0.25"
  },
  {
    "Sequence Change": "MITD",
    "enrichment ratio": "≤ 0.25"
  },
  {
    "Sequence Change": "SMSQ",
    "enrichment ratio": 11.1
  },
  {
    "Sequence Change": "WYLH",
    "enrichment ratio": "≤ 0.25"
  },
  {
    "Sequence Change": "STIM",
    "enrichment ratio": 15.3
  },
  {
    "Sequence Change": "MEFC",
    "enrichment ratio": 12.8
  },
  {
    "Sequence Change": "IQKL",
    "enrichment ratio": "≤ 0.25"
  },
  {
    "Sequence Change": "NHNM",
    "enrichment ratio": "≤ 0.25"
  },
  {
    "Sequence Change": "LDMG",
    "enrichment ratio": "≤ 0.25"
  },
  {
    "Sequence Change": "KFLF",
    "enrichment ratio": "≤ 0.25"
  },
  {
    "Sequence Change": "SAGS",
    "enrichment ratio": 3.14
  },
  {
    "Sequence Change": "TITQ",
    "enrichment ratio": 12.5
  },
  {
    "Sequence Change": "LLMQ",
    "enrichment ratio": "≤ 0.25"
  },
  {
    "Sequence Change": "ASNY",
    "enrichment ratio": "≤ 0.25"
  },
  {
    "Sequence Change": "TKEF",
    "enrichment ratio": "≤ 0.25"
  },
  {
    "Sequence Change": "RATG",
    "enrichment ratio": "≤ 0.25"
  },
  {
    "Sequence Change": "SSTF",
    "enrichment ratio": 7.3
  },
  {
    "Sequence Change": "DATT",
    "enrichment ratio": "≤ 0.25"
  },
  {
    "Sequence Change": "SEAA",
    "enrichment ratio": 14.3
  },
  {
    "Sequence Change": "MDDP",
    "enrichment ratio": "≤ 0.25"
  },
  {
    "Sequence Change": "SPLY",
    "enrichment ratio": "≤ 0.25"
  },
  {
    "Sequence Change": "RINR",
    "enrichment ratio": "≤ 0.25"
  },
  {
    "Sequence Change": "SGTQ",
    "enrichment ratio": 17.4
  },
  {
    "Sequence Change": "NHGT",
    "enrichment ratio": "≤ 0.25"
  },
  {
    "Sequence Change": "IIPK",
    "enrichment ratio": "≤ 0.25"
  },
  {
    "Sequence Change": "YWKL",
    "enrichment ratio": "≤ 0.25"
  },
  {
    "Sequence Change": "ASMT",
    "enrichment ratio": 12
  },
  {
    "Sequence Change": "KATF",
    "enrichment ratio": "≤ 0.25"
  },
  {
    "Sequence Change": "VQAH",
    "enrichment ratio": "≤ 0.25"
  },
  {
    "Sequence Change": "NKIQ",
    "enrichment ratio": "≤ 0.25"
  },
  {
    "Sequence Change": "EKKS",
    "enrichment ratio": "≤ 0.25"
  },
  {
    "Sequence Change": "GEDL",
    "enrichment ratio": "≤ 0.25"
  },
  {
    "Sequence Change": "ASNT",
    "enrichment ratio": "≤ 0.25"
  },
  {
    "Sequence Change": "NNPM",
    "enrichment ratio": "≤ 0.25"
  },
  {
    "Sequence Change": "SNTF",
    "enrichment ratio": 12.1
  },
  {
    "Sequence Change": "DPRG",
    "enrichment ratio": "≤ 0.25"
  },
  {
    "Sequence Change": "METC",
    "enrichment ratio": 45.8
  },
  {
    "Sequence Change": "TGTT",
    "enrichment ratio": 11.2
  },
  {
    "Sequence Change": "KYLD",
    "enrichment ratio": "≤ 0.25"
  },
  {
    "Sequence Change": "RDYI",
    "enrichment ratio": "≤ 0.25"
  }
]
